Test target: human Orai1 (human, UniProt Q96D31 1-301)
Sequence (Q96D31 whole entry): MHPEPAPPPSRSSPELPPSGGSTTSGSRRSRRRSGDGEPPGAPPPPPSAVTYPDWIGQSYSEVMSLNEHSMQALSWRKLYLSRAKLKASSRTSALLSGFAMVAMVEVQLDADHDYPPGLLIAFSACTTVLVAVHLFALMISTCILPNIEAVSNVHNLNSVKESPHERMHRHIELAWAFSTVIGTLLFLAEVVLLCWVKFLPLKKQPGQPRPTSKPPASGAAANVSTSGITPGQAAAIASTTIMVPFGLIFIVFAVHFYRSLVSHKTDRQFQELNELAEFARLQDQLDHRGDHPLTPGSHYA
Assay protocol: cell-based or functional assay
Measure name: IC50 IL-2, whole blood Donor A (nM)
Record the value in nM, omitting the unit from your answer.

binder="mAb 5F2.1 (antibody, human IgG2, lambda, V domains shown, fully human IgG2 lambda, Campaign 2) VH: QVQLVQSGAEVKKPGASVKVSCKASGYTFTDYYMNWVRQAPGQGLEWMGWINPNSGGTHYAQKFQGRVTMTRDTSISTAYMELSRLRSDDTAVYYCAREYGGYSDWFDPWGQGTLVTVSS VL: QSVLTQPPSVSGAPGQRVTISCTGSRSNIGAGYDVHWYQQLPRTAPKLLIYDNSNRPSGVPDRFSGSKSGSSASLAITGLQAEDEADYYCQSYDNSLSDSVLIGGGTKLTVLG" measured_number=4.83
binder="mAb 5B1.1 (antibody, human IgG2, lambda, V domains shown, fully human IgG2 lambda, Campaign 2; also called mAb 5Bl1.1) VH: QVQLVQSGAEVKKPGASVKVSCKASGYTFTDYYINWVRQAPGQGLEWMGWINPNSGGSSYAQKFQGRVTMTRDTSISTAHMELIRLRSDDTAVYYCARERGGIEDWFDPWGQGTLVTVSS VL: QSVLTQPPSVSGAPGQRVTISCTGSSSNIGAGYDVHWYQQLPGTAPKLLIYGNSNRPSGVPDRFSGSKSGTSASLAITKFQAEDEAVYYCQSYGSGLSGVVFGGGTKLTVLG" measured_number=2.73

Task: Suppose we examine the binder mAb 5A4.2 (antibody, human IgG2, lambda, V domains shown, fully human IgG2 lambda, Campaign 2) VH: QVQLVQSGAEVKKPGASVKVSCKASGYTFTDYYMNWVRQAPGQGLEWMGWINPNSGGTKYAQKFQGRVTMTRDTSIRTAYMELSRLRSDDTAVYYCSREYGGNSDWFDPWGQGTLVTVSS VL: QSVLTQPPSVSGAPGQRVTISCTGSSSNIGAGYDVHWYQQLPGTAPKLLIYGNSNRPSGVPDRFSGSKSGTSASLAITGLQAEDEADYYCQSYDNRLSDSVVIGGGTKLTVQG ; what IC50 IL-2, whole blood Donor A value has been reported?
Output: 1.88
